MEASUREMENT_NOTES: Apparent lipophilicity was determined
Here the recorded chromatographic logD is given for each entry.
Field format: numeric only.

Please review the entries below; each comes with its answer.
Nc1ccc(-c2nc3ccc(Br)cc3s2)cc1 ... 2.9
CNc1ccc(-c2nc3ccc(C)cc3s2)cc1 ... 3.1
Cc1ccc2nc(-c3ccc(N)cc3)sc2c1 ... 2.4
CNc1ccc(-c2nc3ccc(Br)cc3s2)cc1 ... 3.6
Cc1ccc2nc(-c3ccc(N(C)C)cc3)sc2c1 ... 3.8
CNc1ccc(-c2nc3ccc(C#N)cc3s2)cc1 ... 2.5
COc1ccc2nc(-c3ccc(N(C)C)cc3)sc2c1 ... 3.3
N#Cc1ccc2nc(-c3ccc(N)cc3)sc2c1 ... 1.8
CN(C)c1ccc(-c2nc3ccc(O)cc3s2)cc1 ... 2
Nc1ccc(-c2nc3ccccc3s2)cc1 ... 2

**Query** For CNc1ccc(-c2nc3ccccc3s2)cc1 , what is its reported chromatographic logD?
**Result** 2.7

**Query** For CN(C)c1ccc(-c2nc3ccc(C#N)cc3s2)cc1 , what is its reported chromatographic logD?
**Result** 3.2

**Query** For CN(C)c1ccc(-c2nc3ccccc3s2)cc1 , what is its reported chromatographic logD?
**Result** 3.4
